For each record, write down the corresponding viability at 24 h, 30 µM.
Assay: Cytotoxicity against human HepG2 cells assessed as rate of ATP content at 30 uM after 1 day by ATPLite-M assay relative to control
Type: cell-based
Settings: read-out: Activity
Numbers only, in %.

Specify viability at 24 h, 30 µM for `CCN(CC)c1ccc(C#N)c2nc(Nc3c(C)cc(Cl)cc3OC)n(C)c12` and stop. 81

Specify viability at 24 h, 30 µM for `CCCN(CCC)c1c(Cl)cc(Cl)c2nc(Nc3c(C)cc(Cl)cc3OC)n(C)c12` and stop. 72

Specify viability at 24 h, 30 µM for `CCN(CC)c1ccc(Cl)c2nc(Nc3c(C)cc(Cl)cc3OC)n(C)c12` and stop. 76

Specify viability at 24 h, 30 µM for `CCCN(CCC)c1cccc2nc(Nc3c(C)cc(Br)cc3OC)n(C)c12` and stop. 82

Specify viability at 24 h, 30 µM for `CCCN(CCC)c1cccc2nc(Nc3c(C)cc(C)cc3C)n(C(C)C)c12` and stop. 10

Specify viability at 24 h, 30 µM for `CCCN(CCC)c1cccc2nc(Nc3c(C)cc(C)cc3C)oc12` and stop. 65

Specify viability at 24 h, 30 µM for `CCN(CC)c1cccc2nc(Nc3c(C)cc(Br)cc3OC)n(C)c12` and stop. 93

Would you kindly look at the next entry?
Specify viability at 24 h, 30 µM for `COCCN(CCOC)c1cccc2nc(Nc3c(C)cc(Br)cc3OC)n(C)c12` and stop. 92

Where do these numbers come from? They come from ChEMBL document CHEMBL3792361.
